tested on: Sk-Mel-2; assay: in vitro; type: cell-based, human
Value Kind: IC50 (µM)

Reference set (5 entries):
{"Molecule": "COC(=O)[C@H](CNC(=O)[C@H]1C[C@H](CCCCNc2ncccn2)C1)NS(=O)(=O)c1c(C)cc(C)cc1C [ICT9018 26]", "Value Kind": "IC50", "Unit Text": "µM", "Test Value": 72}
{"Molecule": "COC(=O)[C@H](CNC(=O)C1CC(CCc2ccc3c(n2)NCCC3)C1)NS(=O)(=O)c1ccccc1 (stereo partly drawn) [ICT9057 45]", "Value Kind": "IC50", "Unit Text": "µM", "Test Value": 65.4}
{"Molecule": "COC(=O)[C@H](CNC(=O)C1CC(CCc2ccc3cccnc3n2)C1)NS(=O)(=O)c1c(C)cc(C)cc1C (stereo partly drawn) [ICT9061 44]", "Value Kind": "IC50", "Unit Text": "µM", "Test Value": 46.8}
{"Molecule": "COC(=O)[C@H](CNC(=O)[C@H]1C[C@H](CCc2ccc3cccnc3n2)C1)NS(=O)(=O)c1c(C)cc(C)cc1C [ICT9053 41]", "Value Kind": "IC50", "Unit Text": "µM", "Test Value": 52.6}
{"Molecule": "COC(=O)[C@H](CNC(=O)[C@H]1C[C@@H](CCCNc2ncccn2)C1)NS(=O)(=O)c1c(C)cc(C)cc1C [ICT9025 28]", "Value Kind": "IC50", "Unit Text": "µM", "Test Value": 55.3}

(1) COC(=O)[C@H](CNC(=O)[C@H]1C[C@H](CCCNc2ncccn2)C1)NS(=O)(=O)c1c(C)cc(C)cc1C [ICT9020 24]
(2) COC(=O)[C@H](CNC(=O)[C@H]1C[C@H](CCc2ccc3c(n2)NCCC3)C1)NS(=O)(=O)c1c(C)cc(C)cc1C [ICT9055 46]
Param pair: 1 , 2 . Output: the one whose IC50 is numerically greater. // caller expects the label of the chosen entry 1
(1: 57.8 µM, 2: 9.6 µM)
